Entry source: patent US20150361176A1

Entries and their IC50 nM, Mean (SBE-bla HEK 293T cell sensor assay, h2)
- Tgt: human TGF-βRII on cells (SBE-bla HEK 293T cells; A549 cells) (human, UniProt P37173 23-567)
- Sequence (P37173 23-567): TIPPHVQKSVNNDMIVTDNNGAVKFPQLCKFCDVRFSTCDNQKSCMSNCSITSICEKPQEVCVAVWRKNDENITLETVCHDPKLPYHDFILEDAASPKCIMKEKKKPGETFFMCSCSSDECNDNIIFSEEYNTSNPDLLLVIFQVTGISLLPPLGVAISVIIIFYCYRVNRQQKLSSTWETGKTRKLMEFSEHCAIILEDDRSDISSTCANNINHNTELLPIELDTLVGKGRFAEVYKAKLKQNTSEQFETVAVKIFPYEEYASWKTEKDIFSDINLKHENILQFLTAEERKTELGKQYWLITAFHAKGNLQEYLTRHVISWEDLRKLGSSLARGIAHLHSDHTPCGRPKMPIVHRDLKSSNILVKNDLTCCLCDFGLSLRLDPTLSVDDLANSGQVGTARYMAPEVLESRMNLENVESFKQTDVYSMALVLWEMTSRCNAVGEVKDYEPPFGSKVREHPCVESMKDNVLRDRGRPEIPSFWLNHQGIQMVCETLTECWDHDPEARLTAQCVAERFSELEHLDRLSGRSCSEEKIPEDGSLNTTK
- Assay overview: cell-based or functional assay
Reported endpoint: IC50 nM, Mean (SBE-bla HEK 293T cell sensor assay, h2)

* DOM23h-843 (VHH, human VH domain antibody (dAb), naive lead; parent of DOM23h-843-13; not shown: C-terminal FLAG tag from vector pDOM10) VHH: EVQLLESGGGLVQPGGSLRLSCAASGFTFDQDRMWWVRQAPGKGLEWVSAIESGGHRTYYADSVKGRFTISRDNSKNTLYLQMNSLRAEDTAVYYCAKQNESGRSGFDYWGQGTLVTVSS | > 9010 nM
* DOM23h-866 (VHH, not shown: small tags and cut ends) VHH: EVQLLESGGGLVQPGGSLRLSCAASGFTFSNYWMRWARQAPGKGLEWVSYITPKGDHTYYADSVKGRFTISRDNSKNTLYLQMNSLRAEDTAVYYCAESLHNERVKHFDYWGQGTLVTVSS | > 1760 nM
* DOM23h-803 (VHH, not shown: small tags and cut ends) VHH: EVQLLESGGGLVQPGGSLRLSCAASGFTFSAGRMWWVRQAPGKGLEWVSAINRDGTRTYYADSVKGRFTISRDNSKNTLYLQMNSLRAEDTAVYYCAKHDDGHGNFDYWGQGTLVTVSS | > 11600 nM
* DOM23h-874 (VHH, not shown: small tags and cut ends) VHH: EVQLLESGGGLVQPGGSLRLSCAASGFTFTSYRMWWVRQAPGKGLEWVSVIDSTGSATYYADSVKGRFTISRDNSKNTLYLQMNSLRAEDTAVYYCAKQQAGSAMGEFDYWGQGTLVTVSS | > 925 nM
* DOM23h-830 (VHH, not shown: small tags and cut ends) VHH: EVQLLESGGGLVQPGGFLRLSCAASGFTFEGYRMWWVRQAPGKGLEWVSAIDSLGDRTYYADSVKGRFTISRDNSKNTLYLQMNSLRAEDTAVYYCAKQGLTHQSPSTFDYWGQGTLVTVSS | 6300 nM
* DOM23h-850 (VHH, not shown: small tags and cut ends) VHH: EVQLLESGGGLVQPGGSLRLSCAASGFTFDAARMWWARQAPGKGLEWVSAIADIGNTTYYADSVKGRFTISRDNSKNTLYLQMNSLRAEDTAVYYCAKQSGSEDHFDYWGQGTLVTVSS | 5350 nM
